TESTED ON: P2X7 (IL-1β release from THP-1 cells) (Homo sapiens (Human), UniProt Q99572)
TEST METHOD NOTES: IL-1β release assay
Format: cell-based
pIC50: −log10 of the molar value.
Reported pIC50 values are given for each entry in this list.
PARAMETER MEASURED: pIC50

> print(dat)
                                   compound                                 tested.on  recorded.measurement
1  O=C(NCCC1CCCC1)c1cn(C2COC2)c2cccc(Cl)c12  P2X7 (IL-1β release from THP-1 cells) (Homo sapiens (Human), UniProt Q99572)          6.30 to 7.00
2  O=C(NCC1CCC(C(F)(F)F)CC1)c1cn(C2COC2)c2cccc(Cl)c12 (centres unmarked)  P2X7 (IL-1β release from THP-1 cells) (Homo sapiens (Human), UniProt Q99572)          6.30 to 7.00
3  C[C@@H]1CCC[C@](O)(CNC(=O)c2cn(CC3CCCO3)c3cccc(Cl)c23)C1 (some centres unmarked)  P2X7 (IL-1β release from THP-1 cells) (Homo sapiens (Human), UniProt Q99572)          6.30 to 7.00
4  O=C(NCC1CCCCC1)c1cn(C2CCOC2)c2cccc(Cl)c12 (centres unmarked)  P2X7 (IL-1β release from THP-1 cells) (Homo sapiens (Human), UniProt Q99572)          6.00 to 6.30
5  CN1CCOCC1Cn1cc(C(=O)NCC2CCC(F)(F)CC2)c2c(Cl)cccc21 (centres unmarked)  P2X7 (IL-1β release from THP-1 cells) (Homo sapiens (Human), UniProt Q99572)          6.30 to 7.00
6  O=C(NCC1CCC(F)(F)CC1)c1cn(CC2CCCCO2)c2cccc(Cl)c12 (centres unmarked)  P2X7 (IL-1β release from THP-1 cells) (Homo sapiens (Human), UniProt Q99572)          7.00 to 8.00
7  O=C(NCC1CCC(F)(F)CC1)c1cn(CC(F)(F)F)c2cccc(Cl)c12  P2X7 (IL-1β release from THP-1 cells) (Homo sapiens (Human), UniProt Q99572)          6.30 to 7.00
8  CN1CC[C@H]1Cn1cc(C(=O)NCC2CCC(F)(F)CC2)c2c(Cl)cccc21  P2X7 (IL-1β release from THP-1 cells) (Homo sapiens (Human), UniProt Q99572)          7.00 to 8.00

====

TESTED ON: human P2X7 receptor (Homo sapiens (Human), UniProt Q99572)
Sequence (Q99572 whole entry): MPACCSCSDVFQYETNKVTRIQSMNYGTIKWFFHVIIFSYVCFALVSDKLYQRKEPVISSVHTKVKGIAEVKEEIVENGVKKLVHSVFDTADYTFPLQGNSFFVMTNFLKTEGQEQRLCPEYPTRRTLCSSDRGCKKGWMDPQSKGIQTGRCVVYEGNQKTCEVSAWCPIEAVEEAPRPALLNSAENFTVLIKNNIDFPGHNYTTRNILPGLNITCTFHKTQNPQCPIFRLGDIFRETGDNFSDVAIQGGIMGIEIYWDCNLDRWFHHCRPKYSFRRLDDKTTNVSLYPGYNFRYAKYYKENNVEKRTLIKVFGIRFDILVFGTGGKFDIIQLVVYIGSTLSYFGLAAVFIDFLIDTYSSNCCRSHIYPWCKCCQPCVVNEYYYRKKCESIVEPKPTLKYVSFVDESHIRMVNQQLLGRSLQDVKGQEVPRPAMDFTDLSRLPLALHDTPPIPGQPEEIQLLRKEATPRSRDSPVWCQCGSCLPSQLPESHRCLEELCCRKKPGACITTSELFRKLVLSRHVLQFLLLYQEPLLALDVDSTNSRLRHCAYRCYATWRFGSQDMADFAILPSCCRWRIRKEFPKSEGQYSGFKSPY
TEST METHOD NOTES: Pore permeation assay (YO PRO dye uptake)
Type: cell-based
PARAMETER MEASURED: IC50

> print(dat)
                                   compound  parameter.measured  recorded.measurement
1  CC1(C)CCCC(O)(CNC(=O)c2cn(C3CCOC3)c3cccc(Cl)c23)C1 (stereo not drawn)                IC50        0.01 to 0.1 µM
2   COCCn1cc(C(=O)NCc2ccccc2F)c2c(Cl)cccc21                IC50       0.5 to 0.999 µM
3     O=C(NCC(F)F)c1cn(C2COC2)c2cccc(Cl)c12                IC50                > 1 µM
4  O=C(NCC1(O)CCCCCC1)c1cn(C2COC2)c2cccc(Cl)c12                IC50        0.01 to 0.1 µM
5  O=C(NC[C@]1(O)CCCC(F)(F)C1)c1cn(C2COC2)c2cccc(Cl)c12                IC50        0.01 to 0.1 µM
6  O=C(NCC1CCC(F)(F)CC1)c1cn(CCN2CCCC2=O)c2cccc(Cl)c12                IC50        0.01 to 0.1 µM
7  O=C(NC[C@@]1(O)CCCC(F)(F)C1)c1cn(C2COC2)c2cccc(Cl)c12                IC50       0.101 to 0.5 µM
8  O=C(NCC1(O)CCC(F)(F)CC1)c1cn(CC2CCCCO2)c2cccc(Cl)c12 (stereo not drawn)                IC50        0.01 to 0.1 µM
9  O=C(NCC1CCC(F)(F)CC1)c1cn(CC(=O)N2CCCC2)c2cccc(Cl)c12                IC50        0.01 to 0.1 µM

====

# Lookup of reported IC50 keyed by entry
TESTED ON: human P2X7 receptor (Homo sapiens (Human))
TEST METHOD NOTES: Pore permeation assay (YO PRO dye uptake)
Assay type: cell-based
PARAMETER MEASURED: IC50

> print(dat)
                                   compound  recorded.measurement
1  CCC1CCCC(O)(CNC(=O)c2cn(CCOC)c3cccc(Cl)c23)C1 (centres unmarked) [Compound 22]         101 to 500 nM
2  CC1(Cn2cc(C(=O)NCC3CCC(F)(F)CC3)c3c(Cl)cccc32)CCN1 (centres unmarked) [Compound 152]          10 to 100 nM
3  O=C(NCC1CCCC(F)(F)C1)c1cn(C2COC2)c2cccc(Cl)c12 (racemic) [Compound 69]          10 to 100 nM
4  O=C(NC[C@@H]1CCCC[C@H]1O)c1cn(C2COC2)c2cccc(Cl)c12 [Compound 87]         101 to 500 nM
5  CC(C)(CNC(=O)c1cn(C2COC2)c2cccc(Cl)c12)C1CCCC1 [Compound 50]         101 to 500 nM
6  O=C(NCC1CCC(F)(F)CC1)c1cn(CC2CCCN2C2CC2)c2cccc(Cl)c12 (centres unmarked) [Compound 197]          10 to 100 nM
7  O=C(NCC1CCCC(C(F)(F)F)C1)c1cn(C2CCOC2)c2cccc(Cl)c12 (centres unmarked) [Compound 112]          10 to 100 nM
8  O=C(NCC1CCC(F)(F)CC1)c1cn(C2CC3(CNC3)C2)c2cccc(Cl)c12 (centres unmarked) [Compound 172]         500 to 999 nM

====

TESTED ON: human P2X7 receptor (Homo sapiens (Human))
TEST METHOD NOTES: Pore permeation assay (YO PRO dye uptake)
Format: cell-based
MEASUREMENT SETUP: HEK293 transfected with human P2X7; BzATP 10 uM; YO PRO dye uptake; read-out: hP2X7 IC50
pIC50: −log10 of the molar value.
Parameter pIC50: see the listing below.
PARAMETER MEASURED: pIC50

> print(dat)
                                   molecule  parameter.measured  recorded.measurement
1  O=C(NCC1CCC(F)(F)CC1)c1cn(CC(=O)N2CCC2)c2cccc(Cl)c12               pIC50                > 8.00
2  CC1(CCNC(=O)c2cn(C3COC3)c3cccc(Cl)c23)OCCO1               pIC50                < 6.00
3  O=C(NCC1CCC(F)(F)CC1)c1cn(C[C@@H]2CCCN2)c2cccc(Cl)c12               pIC50                > 8.00
4  C[C@@H]1CCC[C@](O)(CNC(=O)c2cn(C3COC3)c3cccc(Cl)c23)C1               pIC50                > 8.00
5  CC1CC(F)(F)CC(O)(CNC(=O)c2cn(CC(F)(F)F)c3cccc(Cl)c23)C1 (centres unmarked)               pIC50          6.30 to 7.00
6  O=C(NCC1CCC(F)(F)CC1)c1cn(CC(=O)N2CCOCC2)c2cccc(Cl)c12               pIC50          6.30 to 7.00
7  O=C(NC[C@@]1(O)CCCC(F)(F)C1)c1cn(CCN2CCCC2=O)c2cccc(Cl)c12               pIC50                < 6.00
8  O=C(NCC1(O)CCCC(C(F)(F)F)C1)c1cn(C2CCOC2)c2cccc(Cl)c12 (centres unmarked)               pIC50                < 6.00

====

compounds and their reported IC50
TESTED ON: P2X7 (IL-1β release from THP-1 cells) (Homo sapiens (Human), UniProt Q99572)
TEST METHOD NOTES: IL-1β release assay
Assay type: cell-based
PARAMETER MEASURED: IC50

> print(dat)
                                   compound  recorded.measurement
1  O=C(NCC1CC(C(F)(F)F)CC(F)(F)C1)c1cn(CC2CCCO2)c2cccc(Cl)c12 (stereo not shown)        0.01 to 0.1 µM
2  COCCn1cc(C(=O)NC[C@]2(O)CCCC(F)(F)C2)c2c(Cl)cccc21       0.101 to 0.5 µM
3  O=C(NCC1CCCC(F)(F)C1)c1cn(CCC(F)F)c2cccc(Cl)c12 (stereo not shown)       0.101 to 0.5 µM
4  O=C(NCC1CCC(F)(F)CC1)c1cn(CC2CCCO2)c2cccc(Cl)c12 (stereo not shown)       0.101 to 0.5 µM
